Consider the following compounds; for each one, report its activity, negative = inhibition.
biological target: Cytochrome P450 2C9 (Homo sapiens) (UniProt P11712); experiment: Cytochrome panel assay with activity outcomes; conditions: recombinant CYP, pro-luciferin dealkylation, luminescence, p450-cyp2c9; series mostly up to 57.1 µM; on activity, negative = inhibition: on the % scale 0 is the no-effect control and ±100 the full control effect
Sequence (P11712 whole entry, looked up): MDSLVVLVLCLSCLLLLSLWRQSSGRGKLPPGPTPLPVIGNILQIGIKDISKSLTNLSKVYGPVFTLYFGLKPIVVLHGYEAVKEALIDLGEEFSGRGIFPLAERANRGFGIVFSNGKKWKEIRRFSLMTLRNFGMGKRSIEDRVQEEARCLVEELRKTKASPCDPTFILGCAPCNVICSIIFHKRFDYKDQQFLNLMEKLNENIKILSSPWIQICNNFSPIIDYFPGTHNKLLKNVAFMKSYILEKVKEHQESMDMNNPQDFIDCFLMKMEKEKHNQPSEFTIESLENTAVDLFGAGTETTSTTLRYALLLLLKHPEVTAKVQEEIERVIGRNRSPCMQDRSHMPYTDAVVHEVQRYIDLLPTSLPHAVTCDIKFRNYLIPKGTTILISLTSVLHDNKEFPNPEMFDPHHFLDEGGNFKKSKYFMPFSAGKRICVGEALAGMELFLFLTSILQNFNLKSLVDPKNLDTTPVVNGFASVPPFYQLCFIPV
The campaign covered roughly 16,000 compounds. About 4,000 (25%) were called active. Not shown: some 26% with an inconclusive outcome. A selection follows.

Take a look at these entries with their results.
Look up activity, negative = inhibition: O=S(=O)(O)[C@@H](c1ccccc1)[C@@H](O)c1ccccc1 3.25% [at 11.4 µM] (inactive)

activity, negative = inhibition for N=C(N)SCCCN ? 7.79% [at 11.4 µM] (inactive)

Recorded activity, negative = inhibition for NC(=O)C[C@H](N)C(N)=O , please? -1.03% [at 11.4 µM] (inactive)

Value lookup for activity, negative = inhibition; key = CN(C)C(=O)c1ccc(-c2cc(NCc3ccccc3)ncn2)cc1 6.12% [at 2.29 µM] (inactive)

Fill in: activity, negative = inhibition of CO[C@@H]1COC(=O)CC=C[C@@H](C)[C@@H]2C=C[C@H](O)[C@@H](COC(=O)[C@H](C)NC(=O)CC=C[C@H]1C)O2 is ___ -4.45% [at 11.4 µM] (inactive)

Provide each entry's activity, negative = inhibition from the list below.
1. CCOC(=O)C(C)(C)[C@H](O)C(C)C
2. NS(=O)(=O)c1ccc(N=Nc2c(O)c(C(=O)O)cc3ccccc23)cc1
3. CC(C)(C)c1ccc(O)c(CN(Cc2c(O)ccc3ccccc23)C2CCCCC2)c1
4. C[N+](C)(C)c1nc(N)nc2c1ncn2[C@H]1O[C@@H](CO)[C@@H](O)[C@H]1O
5. CN(C)C(=O)c1ccc(-c2ccc3ncnc(NCc4ccccc4)c3c2)cc1
6. CC(=O)NCCNc1ncnc2ccc(-c3ccccc3C(F)(F)F)cc12
7. O=C(O)NCC1CCCCC1 (tested in a mixture with another compound)

["-6.81% [at 11.4 µM] (inactive)", "-28.9% [at 11.4 µM] (inactive)", "-19% [at 11.4 µM] (inactive)", "12.2% [at 11.4 µM] (inactive)", "13.4% [at 2.29 µM] (inactive)", "5.92% [at 2.29 µM] (inactive)", "-18.2% [at 11.4 µM] (inactive)"]

----------
biological target: Cytochrome P450 2C9 (Homo sapiens); assay: Cytochrome panel assay with activity outcomes; conditions: recombinant CYP, pro-luciferin dealkylation, luminescence, p450-cyp2c9; series mostly up to 57.1 µM
In all, about 16,000 compounds went through this assay and about 4,000 (25%) were called active. About 26% were inconclusive and are not listed. The call rests on the fitted dose curve; in most records, active means well fitted curve in the direction sought with a large enough effect; inconclusive means small, poorly fitted or top-dose-only effect, or effect the other way; inactive means no such curve, though single readings can be large or run the other way. Only a sample is shown.
Please reply with one of these outcomes: active, inactive

Check the results log: what was the call for N#Cc1cc2nc(O)c(O)nc2cc1[N+](=O)[O-] ? inactive

Call for entry CO[C@H]1COC(=O)C/C=C\[C@H](C)[C@@H](OC)COC(=O)[C@@H](C)COC(=O)C/C=C\[C@@H]1C : active

Further cases:
What is the recorded call for this compound in the test? O=C(CSc1nc2ccccc2[nH]1)Nc1c(F)cccc1F active

For this compound, state the assay outcome: O=C1CN(c2nc(-c3ccccc3)c3cc(Br)ccc3n2)c2ccccc2N1 inactive

Identify the outcome logged in this assay for the compound shown: COc1ccccc1CN1CC[C@@]2(CCCN(C(=O)c3cccn3C)C2)C1 inactive

----------
target: Cytochrome P450 2C9 (Homo sapiens) (UniProt P11712); test: Cytochrome panel assay with activity outcomes; settings: recombinant CYP, pro-luciferin dealkylation, luminescence, p450-cyp2c9; series mostly up to 57.1 µM
About 4,000 (25%) of roughly 16,000 compounds were called active. Another 26% or so got no clear call; they are omitted. Calls come from the whole dose curve; as a rule, active = well fitted curve in the direction sought with a large enough effect; inconclusive = small, poorly fitted or top-dose-only effect, or effect the other way; inactive = no such curve, though single readings can be large or run the other way. These entries were drawn from the full list.
Select the matching outcome among TRUE for active, FALSE for inactive

Hi team, can someone confirm the assay call for CC(C)(Oc1ccc(CCNC(=O)c2ccc(Cl)cc2)cc1)C(=O)O ? FALSE

Could you please tell me the result logged for CCN=C(Nc1ccc(Cl)cc1)c1cccnc1 in this assay? FALSE

Returns: the outcome recorded for COC(=O)c1[nH]c2ccc(Br)cc2c1NC(=O)CN1CCCc2ccccc21 in this assay. TRUE

Next:
For c1ccc(CCc2nc(-c3ccccc3)no2)cc1 , what call appears in the results of this test? FALSE

Just curious, what result did COC(=O)c1[nH]c2ccc(Br)cc2c1NC(=O)CN1CCN(C2CCCCC2)CC1 get here? FALSE

In this assay, the call recorded for CC(C)OC(=O)C(C)(C)Oc1ccc(C(=O)c2ccc(Cl)cc2)cc1 was what? FALSE

----------
molecular target: Cytochrome P450 2C9 (Homo sapiens) (UniProt P11712); assay: Cytochrome panel assay with activity outcomes; settings: recombinant CYP, pro-luciferin dealkylation, luminescence, p450-cyp2c9; series mostly up to 57.1 µM
Among all 16,000 compounds or so, about 4,000 (25%) were called active. Another 26% or so got no clear call; they are omitted. Calls come from the whole dose curve; as a rule, active = well fitted curve in the direction sought with a large enough effect; inconclusive = small, poorly fitted or top-dose-only effect, or effect the other way; inactive = no such curve, though single readings can be large or run the other way. Only a sample is shown.
Permitted responses: TRUE = active, FALSE = inactive

Recorded call for CCNC(=S)NNC(=O)c1cccc(Br)c1 ? FALSE

Next:
Dear all, I need the recorded test outcome for CCNC(=S)NNC(=O)c1cc(C2CC2)nc2ccccc12 , thank you. TRUE

Entry CCNC(=S)NNC(=O)c1cc(C)on1 : call = ? FALSE

----------
target: Cytochrome P450 2C9 (Homo sapiens) (UniProt P11712); test: Cytochrome panel assay with activity outcomes; conditions: recombinant CYP, pro-luciferin dealkylation, luminescence, p450-cyp2c9; series mostly up to 57.1 µM
The whole screen tested about 16,000 compounds, of which about 4,000 (25%) were called active. Inconclusive results (about 26%) are left out. Calls come from the whole dose curve; as a rule, active = well fitted curve in the direction sought with a large enough effect; inconclusive = small, poorly fitted or top-dose-only effect, or effect the other way; inactive = no such curve, though single readings can be large or run the other way. Not all results are given here.
Outcome field: choose from active, inactive

// below: answered compounds
How was CC(=O)N1CCC2(CC1)CN(C(c1ccccc1)c1ccccc1)C2 classified in this test? inactive

So what was the verdict on CS(=O)(=O)N1CCC2(CCCN(C(c3ccccc3)c3ccccc3)C2)CC1 in this test? active

Next:
Any idea what this test logged for COCC(=O)N1CCC2(CC1)CN(C(c1ccccc1)c1ccccc1)C2 ? inactive

Recorded test outcome, item CCOc1cc(/C=C2\C(=O)N(Cc3ccc(C)cc3)C(C)=C2C(=O)OC)ccc1O active

Hey, what did the test say about c1ccc(C(c2ccccc2)N2CCCC3(CCNCC3)C2)cc1 ? inactive

Test call for this compound, please: CS(=O)(=O)N1CCC2(CC1)CN(C(c1ccccc1)c1ccccc1)C2 inactive

Hi, sorry to bother you, what did the test record for CS(=O)(=O)N1CCC[C@@]2(CCN(C(c3ccccc3)c3ccccc3)C2)C1 ? inactive

Tell me the recorded outcome of this test for N#Cc1ccc(-c2ccccc2)nc1SCC(=O)c1cccc(Cl)c1 . active

# lookup: test call for COC(=O)N1CCC2(CC1)CN(C(c1ccccc1)c1ccccc1)C2 active

Per the assay record, what outcome was assigned to COc1ccc(/C=N/NC(=O)c2ccn[nH]2)cc1COc1ccc(Cl)cc1 ? active

----------
biological target: Cytochrome P450 2C9 (Homo sapiens); assay: Cytochrome panel assay with activity outcomes; conditions: recombinant CYP, pro-luciferin dealkylation, luminescence, p450-cyp2c9; series mostly up to 57.1 µM; on activity, negative = inhibition: on the % scale 0 is the no-effect control and ±100 the full control effect
The whole screen tested about 16,000 compounds, of which about 4,000 (25%) were called active. Not shown: some 26% with an inconclusive outcome. Not all results are given here.
REPORTED_METRIC: activity, negative = inhibition

Known results for molecules:
I have this molecule here, C#CCOCCCC(=O)O , and I need its recorded activity, negative = inhibition. 14.4% [at 11.4 µM] (inactive)

Need activity, negative = inhibition of O[C@]1(c2ccccc2)c2ccccc2NC2=NCCN21 , thanks. 3.96% [at 11.4 µM] (inactive)

Bench note: what activity, negative = inhibition did O=C(O)c1ccc(CNCc2ccccc2)cc1 show? 10.3% [at 11.4 µM] (inactive)

I would be grateful if you could provide activity, negative = inhibition for each of the following entries.
1. c1ccc(CNc2ncncc2-c2cccnc2)cc1
2. CC(C)CO/N=C1/C[C@@H](O)[C@@H](O)[C@@H]2[C@@H]3C(=O)N([C@@H](C)c4ccccc4)C(=O)[C@H]3CC[C@@H]12
3. CN(CCC(=O)O)S(=O)(=O)c1ccccc1
4. O[C@@H](c1cc(C(F)(F)F)nc2c(Cl)cc(Cl)cc12)[C@@H]1CCCCN1

1. -3.05% [at 2.29 µM] (inactive)
2. -15.7% [at 11.4 µM] (inactive)
3. 22.4% [at 11.4 µM] (inactive)
4. 0.514% [at 11.4 µM] (inactive)

Fill in activity, negative = inhibition for each of the 4 molecules listed.
1. CO[C@H]1COC(=O)[C@H](Cc2ccccc2)NC(=O)C/C=C\[C@@H](C)[C@H](OC)COC(=O)C/C=C\[C@@H]1C
2. COc1cccc(CSCC(=O)O)c1
3. Nc1ccc(N=Nc2c(S(=O)(=O)O)cc3ccccc3c2S(=O)(=O)O)cc1
4. O=C(O)CSc1nc2ccccc2[nH]1

["2.05% [at 11.4 µM] (inactive)", "-12.1% [at 11.4 µM] (inactive)", "8.14% [at 11.4 µM] (inactive)", "-8.67% [at 11.4 µM] (inactive)"]
